Exercise: state measured log10 of variant/wild-type for each of the binders provided.
Target: T1, human tissue factor pathway inhibitor (TFPI) (human, UniProt P10646 29-304, limits assumed)
T1 construct: bought; also called hTFPI; human TFPI
T1 sequence (looked up): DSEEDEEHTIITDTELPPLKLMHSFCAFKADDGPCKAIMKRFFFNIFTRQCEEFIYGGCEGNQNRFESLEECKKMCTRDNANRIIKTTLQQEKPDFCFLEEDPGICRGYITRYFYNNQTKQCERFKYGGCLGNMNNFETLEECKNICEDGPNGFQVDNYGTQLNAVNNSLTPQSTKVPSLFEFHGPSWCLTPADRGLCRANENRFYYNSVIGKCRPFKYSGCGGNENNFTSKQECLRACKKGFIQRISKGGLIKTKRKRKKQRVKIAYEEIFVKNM
Test: competitive ELISA
In our notation, the value equals log10 of variant/wild-type in ratio.

# Binder, log10 of variant/wild-type
rows = [
    ("4B7 LC_N35L LC_G56A (Fab, V domains shown) VH: QVQLQQSGPGLVKPSQTLSLTCAISGDSVSSNSAAWSWIRQSPGRGLEWLGIIYKRSKWYNDYAVSVKSRITINPDTSKNQFSLQLNSVTPEDTAVYYCARWHSDKHWGFDYWGQGTLVTVSS VL: DIVMTQSPLSLPVTPGEPASISCRSSQSLVFSDGLTYLNWYLQKPGQSPQLLIYKASNRASGVPDRFSGSGSGTDFTLKISRVEAEDVGVYYCQQYDSYPLTFGQGTKVEIKR", 0.49),
    ("4B7 HC_K58M HC_D62N (Fab, V domains shown) VH: QVQLQQSGPGLVKPSQTLSLTCAISGDSVSSNSAAWSWIRQSPGRGLEWLGIIYKRSMWYNNYAVSVKSRITINPDTSKNQFSLQLNSVTPEDTAVYYCARWHSDKHWGFDYWGQGTLVTVSS VL: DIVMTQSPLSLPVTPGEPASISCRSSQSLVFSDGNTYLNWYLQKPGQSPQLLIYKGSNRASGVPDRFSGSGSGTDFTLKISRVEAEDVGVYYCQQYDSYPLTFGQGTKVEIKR", 0.82),
]

Please give log10 of variant/wild-type, item by item, for the list that follows.
1. 4B7 LC_D33R (Fab, V domains shown) VH: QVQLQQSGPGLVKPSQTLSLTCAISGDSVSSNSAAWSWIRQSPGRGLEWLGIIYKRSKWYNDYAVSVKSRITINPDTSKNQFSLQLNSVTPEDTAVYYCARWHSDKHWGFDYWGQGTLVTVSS VL: DIVMTQSPLSLPVTPGEPASISCRSSQSLVFSRGNTYLNWYLQKPGQSPQLLIYKGSNRASGVPDRFSGSGSGTDFTLKISRVEAEDVGVYYCQQYDSYPLTFGQGTKVEIKR
2. 4B7 HC_H103G (Fab, V domains shown) VH: QVQLQQSGPGLVKPSQTLSLTCAISGDSVSSNSAAWSWIRQSPGRGLEWLGIIYKRSKWYNDYAVSVKSRITINPDTSKNQFSLQLNSVTPEDTAVYYCARWGSDKHWGFDYWGQGTLVTVSS VL: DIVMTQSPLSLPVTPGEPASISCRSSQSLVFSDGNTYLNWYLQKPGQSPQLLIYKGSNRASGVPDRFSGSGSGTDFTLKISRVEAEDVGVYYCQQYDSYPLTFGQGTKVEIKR
3. 4B7 HC_D62V (Fab, V domains shown) VH: QVQLQQSGPGLVKPSQTLSLTCAISGDSVSSNSAAWSWIRQSPGRGLEWLGIIYKRSKWYNVYAVSVKSRITINPDTSKNQFSLQLNSVTPEDTAVYYCARWHSDKHWGFDYWGQGTLVTVSS VL: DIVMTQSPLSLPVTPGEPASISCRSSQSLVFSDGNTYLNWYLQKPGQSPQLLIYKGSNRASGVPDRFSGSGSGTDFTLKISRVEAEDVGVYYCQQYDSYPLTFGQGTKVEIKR
4. 4B7 LC_N35L (Fab, V domains shown) VH: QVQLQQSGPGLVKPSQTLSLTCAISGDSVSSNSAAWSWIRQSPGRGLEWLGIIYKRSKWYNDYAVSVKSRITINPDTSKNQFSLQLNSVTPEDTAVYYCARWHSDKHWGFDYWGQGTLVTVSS VL: DIVMTQSPLSLPVTPGEPASISCRSSQSLVFSDGLTYLNWYLQKPGQSPQLLIYKGSNRASGVPDRFSGSGSGTDFTLKISRVEAEDVGVYYCQQYDSYPLTFGQGTKVEIKR

Marked response:
0.56
0.15
1.50
0.32
